Where these numbers come from: paper PMC11412489

Recorded inhibition at 100 µg/mL by entry
tested on: S. aureus; experiment: Antibacterial activity (bacterial growth inhibition); type: cell-based, Staphylococcus aureus; settings: Staphylococcus aureus, at 100 μg/mL, read-out: Antibacterial Activity (% Inhibition ± SEM)
Dear colleague, please return just the value in %, with no unit written.

The cases that follow already have their inhibition at 100 µg/mL on record.
chemical structure: Cc1ccc2oc(=O)c(/C=N/Nc3nc(-c4ccc(Br)cc4)cs3)c(Cl)c2c1
u: %
inhibition at 100 µg/mL: 72

chemical structure: Cc1ccc2oc(=O)c(/C=N/Nc3nc(-c4cccc([N+](=O)[O-])c4)cs3)c(Cl)c2c1
u: %
inhibition at 100 µg/mL: 15

chemical structure: Cc1ccc2oc(=O)c(/C=N/Nc3nc(-c4ccc(C#N)cc4)cs3)c(Cl)c2c1
u: %
inhibition at 100 µg/mL: 27

Record O=c1oc2ccccc2cc1-c1csc(N/N=C/c2cccc(Cl)c2)n1 has S. aureus inhibition at 100 µg/mL equal to 32

The compound O=c1oc2ccccc2cc1-c1csc(N/N=C/c2cc(Cl)cc(Br)c2)n1 , when measured on S. aureus, yielded inhibition at 100 µg/mL of 20

Tested on S. aureus, the item Cc1ccc2oc(=O)c(/C=N/Nc3nc(-c4ccc(Cl)cc4Cl)cs3)c(Cl)c2c1 showed inhibition at 100 µg/mL equal to 36

Tested system S. aureus; inhibition at 100 µg/mL recorded for C/C(=N\NC(N)=S)c1cc2ccccc2oc1=O was 55

Bench note, S. aureus: entry Cc1ccc2oc(=O)c(/C=N/Nc3nc(-c4ccc(Cl)cc4)cs3)c(Cl)c2c1 , its inhibition at 100 µg/mL = 41

* * *

tested on: biofilm of S. aureus ATCC 6538; assay: 96-well plate crystal violet assay for biofilm inhibition; type: cell-based, Staphylococcus aureus; details: Staphylococcus aureus, ATCC6538; 50 µg/mL, S. aureus ATCC 6538, replicate 1; read-out: % Inhibition 1
Listed compounds paired with reported inhibition at 50 µg/mL
Report as a plain number; the unit % is understood.

Example results:
chemical structure: C/C(=N\Nc1nc(-c2ccc(Br)cc2)cs1)c1cc2ccccc2oc1=O
measured target: biofilm of S. aureus ATCC 6538
recorded endpoint: inhibition at 50 µg/mL
quantitative readout: 39.5

chemical structure: Cc1ccc2oc(=O)c(/C=N/Nc3nc(-c4cccc([N+](=O)[O-])c4)cs3)c(Cl)c2c1
measured target: biofilm of S. aureus ATCC 6538
recorded endpoint: inhibition at 50 µg/mL
quantitative readout: 27

chemical structure: O=c1oc2ccccc2cc1-c1csc(N/N=C/c2cc(Cl)cc(Br)c2)n1
measured target: biofilm of S. aureus ATCC 6538
recorded endpoint: inhibition at 50 µg/mL
quantitative readout: 55.1

chemical structure: Cc1ccc2oc(=O)c(/C=N/Nc3nc(-c4ccc([N+](=O)[O-])cc4)cs3)c(Cl)c2c1
measured target: biofilm of S. aureus ATCC 6538
recorded endpoint: inhibition at 50 µg/mL
quantitative readout: 66

Kindly review the next compound as well.
The compound Cc1ccc2oc(=O)c(/C=N/Nc3nc(-c4ccc(C#N)cc4)cs3)c(Cl)c2c1 showed inhibition at 50 µg/mL equal to 74

* * *

Tested on: biofilm of S. aureus ATCC 6538
Test: 96-well plate crystal violet assay for biofilm inhibition
Assay type: cell-based, Staphylococcus aureus
Settings: Staphylococcus aureus, ATCC6538; 6.25 µg/mL, S. aureus ATCC 6538, replicate 3; read-out: % Inhibition 3
Experimental: The quantitative determination of biofilm inhibition was carried out by the crystal violet assay on a sterile 96-well plate with slight modifications. The glycerol stock of S. aureus was revived overnight at 37°C at 80 rpm. The overnight culture was then diluted 100 folds in fresh BHI broth, supplemented with 0.25% glucose. […] The inhibition of biofilm formation was analyzed by measuring the absorbance at 595 nm using the microplate reader (Multiskan Sky, Thermo Scientific, USA). […]
recorded endpoint: inhibition at 6.25 µg/mL (%)
Numbers only here, please. The scale is %.

chemical structure: Cc1ccc2oc(=O)c(/C=N/Nc3nc(-c4ccc(C#N)cc4)cs3)c(Cl)c2c1
u: %
inhibition at 6.25 µg/mL: 22.5

Entry C/C(=N\Nc1nc(-c2ccc(Br)cc2)cs1)c1cc2ccccc2oc1=O — recorded inhibition at 6.25 µg/mL = 5.53

molecule Cc1ccc2oc(=O)c(/C=N/Nc3nc(-c4cccc([N+](=O)[O-])c4)cs3)c(Cl)c2c1 , inhibition at 6.25 µg/mL observed: 3.49

# inhibition at 6.25 µg/mL of O=c1oc2ccccc2cc1-c1csc(N/N=C/c2cc(Cl)cc(Br)c2)n1 = 3.97

For Cc1ccc2oc(=O)c(/C=N/Nc3nc(-c4ccc([N+](=O)[O-])cc4)cs3)c(Cl)c2c1 the molecule record lists inhibition at 6.25 µg/mL as 9.02

* * *

inhibition at 25 µg/mL values for the compounds below.
test system: biofilm of S. aureus ATCC 6538; assay: 96-well plate crystal violet assay for biofilm inhibition; type: cell-based, Staphylococcus aureus; settings: Staphylococcus aureus, ATCC6538; 25 µg/mL, S. aureus ATCC 6538, replicate 3; read-out: % Inhibition 3
Give the value, in units of %, as a plain number.

Examples with answers:
compound: C/C(=N\Nc1nc(-c2ccc(Br)cc2)cs1)c1cc2ccccc2oc1=O [Compound 10]
quantitative readout: 2.09
//
compound: Cc1ccc2oc(=O)c(/C=N/Nc3nc(-c4ccc([N+](=O)[O-])cc4)cs3)c(Cl)c2c1 [Compound 4]
quantitative readout: 28.1
//
compound: Cc1ccc2oc(=O)c(/C=N/Nc3nc(-c4ccc(C#N)cc4)cs3)c(Cl)c2c1 [Compound 3]
quantitative readout: 56.6

For this compound ( Cc1ccc2oc(=O)c(/C=N/Nc3nc(-c4cccc([N+](=O)[O-])c4)cs3)c(Cl)c2c1 [Compound 2] ), measured inhibition at 25 µg/mL is 1.99

Query O=c1oc2ccccc2cc1-c1csc(N/N=C/c2cc(Cl)cc(Br)c2)n1 [Compound 17] yields inhibition at 25 µg/mL of 16.9

* * *

System: biofilm of S. aureus ATCC 6538
Assay: 96-well plate crystal violet assay for biofilm inhibition
Format: cell-based, Staphylococcus aureus
Conditions: Staphylococcus aureus, ATCC6538; 50 µg/mL, S. aureus ATCC 6538, replicate 2; read-out: % Inhibition 2
Protocol: The quantitative determination of biofilm inhibition was carried out by the crystal violet assay on a sterile 96-well plate with slight modifications. The glycerol stock of S. aureus was revived overnight at 37°C at 80 rpm. The overnight culture was then diluted 100 folds in fresh BHI broth, supplemented with 0.25% glucose. […] The inhibition of biofilm formation was analyzed by measuring the absorbance at 595 nm using the microplate reader (Multiskan Sky, Thermo Scientific, USA). […]
inhibition at 50 µg/mL vs 50%: at or above is y, below is n.

# example entries with known answers
chemical structure: O=c1oc2ccccc2cc1-c1csc(N/N=C/c2cc(Cl)cc(Br)c2)n1
discrete label: y
//
chemical structure: C/C(=N\Nc1nc(-c2ccc(Br)cc2)cs1)c1cc2ccccc2oc1=O
discrete label: n
//
chemical structure: Cc1ccc2oc(=O)c(/C=N/Nc3nc(-c4ccc([N+](=O)[O-])cc4)cs3)c(Cl)c2c1
discrete label: y
//
chemical structure: Cc1ccc2oc(=O)c(/C=N/Nc3nc(-c4cccc([N+](=O)[O-])c4)cs3)c(Cl)c2c1
discrete label: n

Attention now shifts to the item below.
Enquiry: Say whether Cc1ccc2oc(=O)c(/C=N/Nc3nc(-c4ccc(C#N)cc4)cs3)c(Cl)c2c1 shows inhibition at 50 µg/mL of 50% or more.
Return: y

* * *

test system: biofilm of S. aureus ATCC 6538; experiment: 96-well plate crystal violet assay for biofilm inhibition; assay type: cell-based, Staphylococcus aureus; conditions: Staphylococcus aureus, ATCC6538; 25 µg/mL, S. aureus ATCC 6538, replicate 2; read-out: % Inhibition 2
// inhibition at 25 µg/mL lookup, one value per entry
Respond numerically; units are % and should not be typed.

chemical structure: C/C(=N\Nc1nc(-c2ccc(Br)cc2)cs1)c1cc2ccccc2oc1=O
inhibition at 25 µg/mL (%): 2.21

chemical structure: Cc1ccc2oc(=O)c(/C=N/Nc3nc(-c4ccc([N+](=O)[O-])cc4)cs3)c(Cl)c2c1
inhibition at 25 µg/mL (%): 30.1

Known value: biofilm of S. aureus ATCC 6538 inhibition at 25 µg/mL of the compound Cc1ccc2oc(=O)c(/C=N/Nc3nc(-c4cccc([N+](=O)[O-])c4)cs3)c(Cl)c2c1 equals 1.44

Noted inhibition at 25 µg/mL for O=c1oc2ccccc2cc1-c1csc(N/N=C/c2cc(Cl)cc(Br)c2)n1 , tested on biofilm of S. aureus ATCC 6538: 15.1

Observed inhibition at 25 µg/mL, biofilm of S. aureus ATCC 6538, Cc1ccc2oc(=O)c(/C=N/Nc3nc(-c4ccc(C#N)cc4)cs3)c(Cl)c2c1 : 57.8
